Measured values drawn from the supplement of paper PMC10567573 for this set.

Overview of recorded protein stability index for various variants
B1: ESRRG (parent)
chain: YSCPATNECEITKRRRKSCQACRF

# Variants of: B1
# experimental_protocol: protein stability index of a GFP-peptide fusion (GPS, HEK-293T) (PSI 1-6); higher = more stable;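 also: lentivirally expressed fusions sorted by FACS into six bins by GFP to DsRed ratio, PSI derived from sequencing read proportions per bin multiplied by bin number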
# condition: c terminus: a fixed tail appended
When you answer, write just the number.

K13Y; 2.78
C19E; 3.84
R14N; 3.63
S2G; 3.58
A21N; 3.41

Note: attention shifts to another entry.
I would be grateful if you could share the reported protein stability index for I11T .
3.69
